Values were extracted from PubChem BioAssay (EPA / NIEHS).

assay_method_text: CEETOX_H295R_DOC: CeeTox H295R High-throughput Steroidogenesis Assay for DOC (AID 2283439)
measurement_parameters: actives raise or lower the signal
The source made the active and inactive calls. The calls were made as follows: active = hit-call score of the fitted dose curve at least 0.9, where 1 is the maximum; inactive = score below 0.9.
In this exercise, the only acceptable responses are active, inactive

Query string: Hello, I am checking results. What call was entered for `Clc1nc(Cl)nc(Nc2ccccc2Cl)n1` ?
Result string: active

Query string: Please share the test call associated with `N#Cc1c(Cl)cccc1Cl` .
Result string: inactive

Query string: Please state the recorded outcome for this compound: `COc1cc(Cl)c(OC)cc1Cl`
Result string: inactive

---

assay_method_text: ATG_MRE_CIS: Attagene CIS-FACTORIAL HepG2 Assay for human Metal Responsive Element (MRE) (AID 2282954)
measurement_parameters: HepG2 MRE cis-reporter transcription, Attagene multiplex; actives raise or lower the signal
Active and inactive are the calls of the source. The calls were made as follows: active = hit-call score of the fitted dose curve at least 0.9, where 1 is the maximum; inactive = score below 0.9.
Respond only with the outcome that fits, drawn from y for active, n for inactive

Query string: Hello, I am checking results. What call was entered for CC1(C)C(C=C(Cl)Cl)C1C(=O)OC(C#N)c1cccc(Oc2ccccc2)c1 (configuration not stated) ?
Result string: y

Query string: GET /call?item= `COc1ccc(-c2ccccc2)cc1NNC(=O)OC(C)C` returns the recorded outcome of this test.
Result string: y

Query string: // param item: `COC(=O)N(C(=O)N1CO[C@@]2(C(=O)OC)Cc3cc(Cl)ccc3C2=N1)c1ccc(OC(F)(F)F)cc1` ; yields the recorded call
Result string: y

Query string: Query: recorded result category for `Cc1ccc(N=CN(C)C=Nc2ccc(C)cc2C)c(C)c1` in this test
Result string: n

Query string: What outcome does the record of this test show for `Cn1c(-c2ccccc2)cc(-c2ccccc2)[n+]1C` ?
Result string: n

Query string: What was the test verdict on `CNC(=O)N(C)c1nnc(C(C)(C)C)s1` ?
Result string: n

Query string: # outcome recorded in this test, key = `Cc1nc(N(C)C)nc(OC(=O)N(C)C)c1C`
Result string: n

Query string: Hello, I am checking results. What call was entered for CCOC(=O)C(C)OC(=O)c1cc(Oc2ccc(C(F)(F)F)cc2Cl)ccc1[N+](=O)[O-] (configuration not stated) ?
Result string: n

Query string: Please let me know the test result on file for `Nc1c(Cl)c(Cl)nc(C(=O)O)c1Cl` .
Result string: n

Query string: Entry `O=c1n(Cl)c(=O)n(Cl)c(=O)n1Cl` : call = ?
Result string: n

Query string: Please state the recorded outcome for this molecule: CC(C)C1(C)N=C(c2ncccc2C(=O)O)NC1=O (configuration not stated)
Result string: n

Query string: Please let me know the test result on file for `C=CCOC(=O)C(C)(C)OC(=O)c1cc(-n2c(=O)cc(C(F)(F)F)n(C)c2=O)ccc1Cl` .
Result string: n

Query string: Could you kindly confirm the outcome this assay logged for `OC(c1ccc(Cl)cc1)(c1ccc(Cl)cc1)C(Cl)(Cl)Cl` ?
Result string: n

Query string: // outcome(item) with item = CCCC(=NOCC)C1=C(O)CC(CC(C)SCC)CC1=O (configuration not stated)
Result string: n

Query string: What did the test return for `CC(C)N1C(=O)N(c2ccccc2)CSC1=NC(C)(C)C` ?
Result string: n

Query string: Kindly provide the recorded test outcome for the following molecule: `COc1cc(OC)nc(NC(=O)NS(=O)(=O)c2ncccc2OCC(F)(F)F)n1`
Result string: n

Query string: Called result for `Nc1cnn(-c2ccccc2)c(=O)c1Cl`
Result string: n

Query string: Can you look up the reported call for `COC(=O)NS(=O)(=O)c1ccc(N)cc1` for me?
Result string: n

Query string: What call does the record list for `CC(C)N1C(=O)c2ccccc2NS1(=O)=O` ?
Result string: n

Query string: Could you please tell me the result logged for `Nc1c(Cl)c(F)nc(OCC(=O)O)c1Cl` in this assay?
Result string: n

Query string: Give the logged outcome of this assay for the following molecule: Cc1cnc(C2=NC(C)(C(C)C)C(=O)N2)c(C(=O)O)c1 (configuration not stated)
Result string: n

Query string: How did this test come out for `Clc1nc(Cl)nc(Nc2ccccc2Cl)n1` ?
Result string: n
